Assay Method Text: physchem
Test Conditions: octan-1-ol/water, pH 7.4
Each entry below carries its reported logD.
Answer field: number only, no words.

Look over these answered cases.
- Molecule: "CN1CCC(C#N)(c2cccc3ccccc23)CC1"
  logD: 2.73
- Molecule: "CC(=O)Nc1ccc2ccn(-c3cc(NC4CC4)n4ncc(C#N)c4n3)c2c1"
  logD: 3.29
- Molecule: "CNC1=Nc2ncccc2C(c2ccns2)=NC1c1cccs1 (stereo unspecified)"
  logD: 2.15
- Molecule: "COc1ccc2c(c1)cc(C(=O)O)n2Cc1ccc(Cl)c(Cl)c1"
  logD: 1.66
- Molecule: "c1ccc2c(OCC3=NCCN3)cccc2c1"
  logD: 0.68

Problem: Read off the recorded logD for "COc1cc(C(=O)N2CC[C@](CCN3CCC(C(N)=O)(c4ccccc4)CC3)(c3ccc(Cl)c(Cl)c3)C2)cc(OC)c1OC"
Result: 3.23

---

Assay Method Text: physchem
Test Conditions: pH 7.4 buffer
Field: class. Source value: solubility thermodynamic. Ranges: group A (below 4 µM), group B (4 µM to below 200 µM), group C (200 µM or more)

Answered cases to consult:
- Molecule: "CC1(C)CNC(=O)c2sc(N3CCOCC3)nc2C1"
  Label: "group C"
- Molecule: "C[C@H]1CN(c2ncc(OCc3ccc(S(C)(=O)=O)cc3)cn2)CCN1C(=O)OC(C)(C)C"
  Label: "group A"
- Molecule: "COc1cc2ncnc(Nc3ccc(F)c(Cl)c3)c2cc1OCCCn1ccnc1"
  Label: "group A"
- Molecule: "CCn1cc(NC(=O)Cc2ccc(Oc3ccnc4cc(OC)c(OC)cc34)cc2OC)cn1"
  Label: "group B"
- Molecule: "CCC(CC)NC(=O)c1cn(-c2ccccc2)nc1NS(=O)(=O)c1ccc(C)cc1"
  Label: "group B"

Problem: Textbook exercise: identify the category of the molecule given here, "C[C@@H](Oc1cccc2ncnc(Nc3ccc4c(cnn4Cc4cccc(F)c4)c3)c12)C(=O)N1CCOCC1" , according to its measured value.
Result: group A

Problem: Textbook exercise: identify the category of the molecule given here, CC(C)C(NC(=O)c1cnoc1C(C)(C)C)C(=O)c1ccc(C#N)cc1 (stereo not given) , according to its measured value.
Result: group B

Problem: Textbook exercise: identify the category of the molecule given here, NC(=O)COc1ccc(OCCNCC(O)COc2ccccc2)cc1 (stereo not given) , according to its measured value.
Result: group C

Problem: Textbook exercise: identify the category of the molecule given here, "C[C@@H](c1ccc(-c2ccc(F)cc2F)cc1)N1CC[C@](CCO)(c2ccc(F)cc2)OC1=O" , according to its measured value.
Result: group A

Problem: Textbook exercise: identify the category of the molecule given here, "CO[C@H]1CN(Cc2ccc(C(F)(F)F)cc2)CC[C@H]1N(C)C(=O)Cc1ccc(-n2cnnn2)cc1" , according to its measured value.
Result: group C

Problem: Textbook exercise: identify the category of the molecule given here, "Cc1cc(OCCCS(C)(=O)=O)cc(C)c1-c1cccc(COc2ccc3c(c2)OC[C@H]3CC(=O)O)c1" , according to its measured value.
Result: group B

Problem: Textbook exercise: identify the category of the molecule given here, "O=C1CN(C(=O)c2ccco2)c2ccccc2N1" , according to its measured value.
Result: group C

Problem: Textbook exercise: identify the category of the molecule given here, "CCn1ccc(NC(=O)Cc2ccc(Oc3ncnc4cc(OC)c(OC)cc34)cc2)n1" , according to its measured value.
Result: group B

Problem: Textbook exercise: identify the category of the molecule given here, "CS(=O)(=O)c1cccc(Nc2nccc(Nc3c(Cl)ccc4ccoc34)n2)c1" , according to its measured value.
Result: group B

Problem: Textbook exercise: identify the category of the molecule given here, "O=C(O)C[C@H]1CC[C@H](c2ccc(-c3ccc(Nc4ccc(C(F)(F)F)nc4)cn3)cc2)CC1" , according to its measured value.
Result: group A

Problem: Textbook exercise: identify the category of the molecule given here, "COc1cc(CCc2cc(Nc3ccnc(NCc4cc(C)on4)n3)n[nH]2)cc(OC)c1" , according to its measured value.
Result: group B

Problem: Textbook exercise: identify the category of the molecule given here, "COc1ccc2[nH]c3c(c2c1)CN(C(=O)[C@@H]1CCCC[C@H]1C(=O)NC1(C#N)CC1)CC3" , according to its measured value.
Result: group C

Problem: Textbook exercise: identify the category of the molecule given here, "Cc1ccc(Oc2ccc(C(=O)N(C)Cc3ccncc3)cc2)cc1" , according to its measured value.
Result: group A

Problem: Textbook exercise: identify the category of the molecule given here, "O=S(=O)(NCc1ccccc1)c1cccc2nonc12" , according to its measured value.
Result: group B

Problem: Textbook exercise: identify the category of the molecule given here, "CC(C)(C)Cn1c(CN2C(=O)CC3(CCNCC3)C2=O)cc2cnc(C#N)nc21" , according to its measured value.
Result: group C
